B1: EIF5 (parent)
chain: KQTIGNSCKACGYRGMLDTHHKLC

Variants of: B1
Protocol notes: protein stability index of a GFP-peptide fusion (GPS, HEK-293T) (PSI 1-6); higher = more stable;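 note: lentivirally expressed fusions sorted by FACS into six bins by GFP to DsRed ratio, PSI derived from sequencing read proportions per bin multiplied by bin number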
Test conditions: c terminus: a fixed tail appended
# binarize protein stability index: threshold 3 inclusive, high side 1.0, low side 0.0

Reference set, count: 10
>>> print(df.to_string())
   alteration  classification
0        H21G             1.0
1        L23W             1.0
2        M16K             1.0
3        H20W             0.0
4        L17E             1.0
5        H20I             0.0
6        C11E             0.0
7         G5Q             1.0
8         S7E             1.0
9        T19S             1.0

// inclusive: protein stability index at least 3? input: A10H
1.0

What do we get for C24N ?
0.0

Here is the next variant: C8I
0.0
